target: dopamine 2 (D2) receptor (Rattus norvegicus, UniProt P61169); experiment: Affinity for dopamine 2 (D2) receptor, 3H-Spiperone binding test; conditions: rat corpus striatum, 0.2 nM 3H-Spiperone, pH 7.1, 37° C., 20 min
Sequence (P61169 whole entry): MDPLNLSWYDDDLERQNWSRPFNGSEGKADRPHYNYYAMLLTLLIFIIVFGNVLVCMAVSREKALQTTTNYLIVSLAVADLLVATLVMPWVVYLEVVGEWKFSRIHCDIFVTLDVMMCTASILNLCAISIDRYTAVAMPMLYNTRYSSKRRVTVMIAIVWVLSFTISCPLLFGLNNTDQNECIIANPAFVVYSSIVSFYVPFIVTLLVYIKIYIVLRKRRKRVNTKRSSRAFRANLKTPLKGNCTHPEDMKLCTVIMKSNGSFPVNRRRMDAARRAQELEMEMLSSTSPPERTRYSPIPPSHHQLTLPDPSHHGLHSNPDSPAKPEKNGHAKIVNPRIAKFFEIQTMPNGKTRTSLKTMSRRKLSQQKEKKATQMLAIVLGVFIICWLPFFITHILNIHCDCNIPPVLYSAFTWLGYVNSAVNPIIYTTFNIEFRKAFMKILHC
Structures can show the parent of a compound that is named as a salt.
PROPERTY_NAME: Ki (nM)
The figure you give is taken to be in nM; do not add the unit.

Query block: Entry CCc1cc2c(s1)CCCN(CCCCN1CCN(c3ncccn3)CC1)C2=O.O=C(O)/C=C/C(=O)O [Example 46, fumarate] : reported Ki = ?
Result block: 78

Query block: Entry Cc1cc2c(s1)CCCN(CCCCNCC1COc3ccccc3O1)C2=O.Cl (stereo not drawn) [Example 163, hydrochloride] : reported Ki = ?
Result block: 6.2

Query block: Entry CC(O)c1cc2c(s1)CCCN(CCCCN1CCN(c3ncccn3)CC1)C2=O.O=C(O)/C=C\C(=O)O (stereo not drawn) [Example 155, maleate] : reported Ki = ?
Result block: 170

Query block: Entry `O=C1c2ccsc2SCCN1CCCCN1CCN(c2ncccn2)CC1` : reported Ki = ?
Result block: 1800

Query block: Entry `O=C1c2cc(Br)sc2CCCN1CCCCN1CCN(c2ncccn2)CC1` : reported Ki = ?
Result block: 100

Query block: Entry Cc1cc2c(s1)CCCN(CCCCN1CCN(c3ncccn3)CC1)C2=O [15 (hydrochloride)] : reported Ki = ?
Result block: 140

###

Target: serotonin 1A (5-HT1A) receptor (Rattus norvegicus)
Sequence (P19327 1-422): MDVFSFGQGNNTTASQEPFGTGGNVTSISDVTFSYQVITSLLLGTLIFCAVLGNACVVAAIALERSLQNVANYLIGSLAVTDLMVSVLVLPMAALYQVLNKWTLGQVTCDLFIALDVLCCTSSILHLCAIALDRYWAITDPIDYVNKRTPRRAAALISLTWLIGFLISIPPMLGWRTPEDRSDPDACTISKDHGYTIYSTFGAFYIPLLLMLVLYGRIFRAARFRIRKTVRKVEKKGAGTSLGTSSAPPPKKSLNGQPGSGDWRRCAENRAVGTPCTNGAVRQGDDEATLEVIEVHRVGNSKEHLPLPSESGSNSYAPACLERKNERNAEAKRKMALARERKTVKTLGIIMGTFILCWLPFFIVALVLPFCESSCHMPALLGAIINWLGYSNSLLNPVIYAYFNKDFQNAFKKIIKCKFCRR
Where a name gives a salt, the structure may show the parent alone.
Record form. Attribute: Ki. Fill in for each entry.
The figure you give is taken to be in nM; do not add the unit.

Query block: Entry CCc1cc2c(s1)CCCN(CCCCN1CCN(c3ncccn3)CC1)C2=O.O=C(O)/C=C/C(=O)O [Example 46, fumarate] : reported Ki = ?
Result block: 1.3

Query block: Entry `O=C1c2ccsc2SCCN1CCCCN1CCN(c2ncccn2)CC1` : reported Ki = ?
Result block: 5.2

Query block: Entry CCc1cc2c(s1)SCCN(CCCCN1CCN(c3ncccn3)CC1)C2=O [Example 121, hydrate] : reported Ki = ?
Result block: 1.4

Query block: Entry CC(=O)c1cc2c(s1)CCCN(CCCCN1CCN(c3ncccn3)CC1)C2=O [13 (maleate)] : reported Ki = ?
Result block: 1.6

Query block: Entry CC(O)c1cc2c(s1)CCCN(CCCCN1CCN(c3ncccn3)CC1)C2=O.O=C(O)/C=C\C(=O)O (centres unmarked) [Example 155, maleate] : reported Ki = ?
Result block: 0.81

Query block: Entry O=C1c2cc(Br)sc2SCCN1CCCCN1CCN(c2ncccn2)CC1 [Example 107, hydrate] : reported Ki = ?
Result block: 1.5

Query block: Entry Cc1cc2c(s1)CCCN(CCCCN1CCN(c3ncccn3)CC1)C2=O [15 (hydrochloride)] : reported Ki = ?
Result block: 2.1

Query block: Entry Cc1cc2c(s1)CCCN(CCCCNCC1COc3ccccc3O1)C2=O.Cl (centres unmarked) [Example 163, hydrochloride] : reported Ki = ?
Result block: 0.15

###

biological target: dopamine 2 (D2) receptor (Rattus norvegicus); test: Affinity for dopamine 2 (D2) receptor, 3H-Spiperone binding test; settings: rat corpus striatum, 0.2 nM 3H-Spiperone, pH 7.1, 37° C., 20 min
PROPERTY_NAME: pKi
Note on units: pKi is unitless, being -log10 of a concentration expressed in mol/L.

Query block: Entry CC(=O)c1cc2c(s1)CCCN(CCCCN1CCN(c3ncccn3)CC1)C2=O [13 (maleate)] : reported pKi = ?
Result block: 6.72

Query block: Entry O=C1c2cc(Br)sc2SCCN1CCCCN1CCN(c2ncccn2)CC1 [Example 107, hydrate] : reported pKi = ?
Result block: 6.92

Query block: Entry `CC(=O)c1cc2c(s1)SCCN(CCCCN1CCN(c3ncccn3)CC1)C2=O` : reported pKi = ?
Result block: 6.57

Query block: Entry CCc1cc2c(s1)SCCN(CCCCN1CCN(c3ncccn3)CC1)C2=O [Example 121, hydrate] : reported pKi = ?
Result block: 6.82

###

Record form. Attribute: Ki. Fill in for each entry.
target: serotonin 2 (5-HT2) receptor (Rattus norvegicus, UniProt P14842)
Sequence (P14842 whole entry): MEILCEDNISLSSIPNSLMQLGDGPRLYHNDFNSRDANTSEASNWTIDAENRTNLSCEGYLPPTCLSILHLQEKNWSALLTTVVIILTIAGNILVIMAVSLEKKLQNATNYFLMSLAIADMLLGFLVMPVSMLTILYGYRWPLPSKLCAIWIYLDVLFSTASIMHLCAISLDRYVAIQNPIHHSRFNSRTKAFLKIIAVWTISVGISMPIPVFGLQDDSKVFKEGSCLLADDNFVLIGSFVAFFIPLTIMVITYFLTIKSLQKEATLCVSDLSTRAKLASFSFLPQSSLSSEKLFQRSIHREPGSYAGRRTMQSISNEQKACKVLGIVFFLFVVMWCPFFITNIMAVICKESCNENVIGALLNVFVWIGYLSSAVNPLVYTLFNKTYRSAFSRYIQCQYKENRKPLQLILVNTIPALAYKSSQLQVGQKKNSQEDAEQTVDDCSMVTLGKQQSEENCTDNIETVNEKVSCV
Counter-ions that a name gives are not always drawn.
The figure you give is taken to be in nM; do not add the unit.

Query block: Entry `O=C1c2cc(Br)sc2CCCN1CCCCN1CCN(c2ncccn2)CC1` : reported Ki = ?
Result block: 900

Query block: Entry CCc1cc2c(s1)SCCN(CCCCN1CCN(c3ncccn3)CC1)C2=O [Example 121, hydrate] : reported Ki = ?
Result block: 1100

Query block: Entry `O=C1c2ccsc2SCCN1CCCCN1CCN(c2ncccn2)CC1` : reported Ki = ?
Result block: 1800

Query block: Entry CCc1cc2c(s1)CCCN(CCCCN1CCN(c3ncccn3)CC1)C2=O.O=C(O)/C=C/C(=O)O [Example 46, fumarate] : reported Ki = ?
Result block: 990

Query block: Entry Cc1cc2c(s1)CCCN(CCCCN1CCN(c3ncccn3)CC1)C2=O [15 (hydrochloride)] : reported Ki = ?
Result block: 1500

Query block: Entry Cc1cc2c(s1)CCCN(CCCCNCC1COc3ccccc3O1)C2=O.Cl (stereo not drawn) [Example 163, hydrochloride] : reported Ki = ?
Result block: 1200

###

Record form. Attribute: pKi. Fill in for each entry.
Note on units: pKi is unitless, being -log10 of a concentration expressed in mol/L.

Query block: # returns recorded pKi (system: serotonin 2 (5-HT2) receptor (Rattus norvegicus)) for CC(O)c1cc2c(s1)CCCN(CCCCN1CCN(c3ncccn3)CC1)C2=O.O=C(O)/C=C\C(=O)O (stereo not shown) [Example 155, maleate]
Result block: 5.68

Query block: # returns recorded pKi (system: serotonin 2 (5-HT2) receptor (Rattus norvegicus)) for CC(=O)c1cc2c(s1)CCCN(CCCCN1CCN(c3ncccn3)CC1)C2=O [13 (maleate)]
Result block: 5.85

Query block: # returns recorded pKi (system: serotonin 2 (5-HT2) receptor (Rattus norvegicus)) for O=C1c2cc(Br)sc2SCCN1CCCCN1CCN(c2ncccn2)CC1 [Example 107, hydrate]
Result block: 6.00

Query block: # returns recorded pKi (system: serotonin 2 (5-HT2) receptor (Rattus norvegicus)) for `CC(=O)c1cc2c(s1)SCCN(CCCCN1CCN(c3ncccn3)CC1)C2=O`
Result block: 5.74
